Here's a batch of compounds along with measured log10(Ki) for Nociceptin receptor (Mus musculus).
Recall that a logarithmic scale is used here: each number is log10 of Ki in nM.

Any idea what log10(Ki) was measured for `C[C@H](NC(=O)CNC(=O)[C@@H](NC(=O)[C@H](Cc1ccc(Cl)cc1)NC(=O)CNC(=O)CNC(=O)[C@@H](N)Cc1ccccc1)[C@@H](C)O)C(=O)N[C@@H](CCCN=C(N)N)C(=O)N[C@@H](CCCCN)C(=O)N[C@@H](CO)C(=O)N[C@@H](C)C(=O)N[C@@H](CCCN=C(N)N)C(=O)N[C@@H](CCCCN)C(N)=O` ?
-0.10

Any idea what log10(Ki) was measured for `C[C@H](NC(=O)CNC(=O)[C@@H](NC(=O)[C@H](Cc1ccc(Br)cc1)NC(=O)CNC(=O)CNC(=O)[C@@H](N)Cc1ccccc1)[C@@H](C)O)C(=O)N[C@@H](CCCN=C(N)N)C(=O)N[C@@H](CCCCN)C(=O)N[C@@H](CO)C(=O)N[C@@H](C)C(=O)N[C@@H](CCCN=C(N)N)C(=O)N[C@@H](CCCCN)C(N)=O` ?
0.26

Any idea what log10(Ki) was measured for `C[C@H](NC(=O)CNC(=O)[C@@H](NC(=O)[C@H](Cc1ccc(O)cc1)NC(=O)CNC(=O)CNC(=O)[C@@H](N)Cc1ccccc1)[C@@H](C)O)C(=O)N[C@@H](CCCN=C(N)N)C(=O)N[C@@H](CCCCN)C(=O)N[C@@H](CO)C(=O)N[C@@H](C)C(=O)N[C@@H](CCCN=C(N)N)C(=O)N[C@@H](CCCCN)C(N)=O` ?
2.70

Any idea what log10(Ki) was measured for `C[C@H](NC(=O)CNC(=O)[C@@H](NC(=O)[C@H](Cc1ccc(C(F)(F)F)cc1)NC(=O)CNC(=O)CNC(=O)[C@@H](N)Cc1ccccc1)[C@@H](C)O)C(=O)N[C@@H](CCCN=C(N)N)C(=O)N[C@@H](CCCCN)C(=O)N[C@@H](CO)C(=O)N[C@@H](C)C(=O)N[C@@H](CCCN=C(N)N)C(=O)N[C@@H](CCCCN)C(N)=O` ?
0.00

Any idea what log10(Ki) was measured for `C[C@H](NC(=O)CNC(=O)[C@@H](NC(=O)[C@H](Cc1ccc(I)cc1)NC(=O)CNC(=O)CNC(=O)[C@@H](N)Cc1ccccc1)[C@@H](C)O)C(=O)N[C@@H](CCCN=C(N)N)C(=O)N[C@@H](CCCCN)C(=O)N[C@@H](CO)C(=O)N[C@@H](C)C(=O)N[C@@H](CCCN=C(N)N)C(=O)N[C@@H](CCCCN)C(N)=O` ?
1.24

Any idea what log10(Ki) was measured for `C[C@H](NC(=O)CNC(=O)[C@@H](NC(=O)[C@H](Cc1cccc(F)c1)NC(=O)CNC(=O)CNC(=O)[C@@H](N)Cc1ccccc1)[C@@H](C)O)C(=O)N[C@@H](CCCN=C(N)N)C(=O)N[C@@H](CCCCN)C(=O)N[C@@H](CO)C(=O)N[C@@H](C)C(=O)N[C@@H](CCCN=C(N)N)C(=O)N[C@@H](CCCCN)C(N)=O` ?
-0.05

====

SYSTEM_NAME: Nociceptin receptor (Mus musculus) (UniProt P35377)
EXPERIMENT_DESCRIPTION: Maximum receptor binding in the electrically stimulated mouse vas deferens
Type: functional, tissue-based
MEASUREMENT_KIND: Emax (%)
Give just the numeric value; % need not be written.

Any idea what Emax was measured for `C[C@H](NC(=O)CNC(=O)[C@@H](NC(=O)[C@H](Cc1ccc(F)cc1)NC(=O)CNC(=O)CNC(=O)[C@@H](N)Cc1ccccc1)[C@@H](C)O)C(=O)N[C@@H](CCCN=C(N)N)C(=O)N[C@@H](CCCCN)C(=O)N[C@@H](CO)C(=O)N[C@@H](C)C(=O)N[C@@H](CCCN=C(N)N)C(=O)N[C@@H](CCCCN)C(N)=O` ?
-85

Any idea what Emax was measured for `C[C@H](NC(=O)CNC(=O)[C@@H](NC(=O)[C@H](Cc1ccc(I)cc1)NC(=O)CNC(=O)CNC(=O)[C@@H](N)Cc1ccccc1)[C@@H](C)O)C(=O)N[C@@H](CCCN=C(N)N)C(=O)N[C@@H](CCCCN)C(=O)N[C@@H](CO)C(=O)N[C@@H](C)C(=O)N[C@@H](CCCN=C(N)N)C(=O)N[C@@H](CCCCN)C(N)=O` ?
-76

Any idea what Emax was measured for `COc1ccc(C[C@H](NC(=O)CNC(=O)CNC(=O)[C@@H](N)Cc2ccccc2)C(=O)N[C@H](C(=O)NCC(=O)N[C@@H](C)C(=O)N[C@@H](CCCN=C(N)N)C(=O)N[C@@H](CCCCN)C(=O)N[C@@H](CO)C(=O)N[C@@H](C)C(=O)N[C@@H](CCCN=C(N)N)C(=O)N[C@@H](CCCCN)C(N)=O)[C@@H](C)O)cc1` ?
-80

====

Species on record: Mus musculus
EXPERIMENT_DESCRIPTION: Maximum receptor binding assay determined by using mouse forebrain membrane and [3H]NC-NH2
Format: functional
Assign Emax to each entry below.
Give just the numeric value; % need not be written.

Any idea what Emax was measured for `C[C@H](NC(=O)CNC(=O)[C@@H](NC(=O)[C@@H](NC(=O)CNC(=O)CNC(=O)[C@@H](N)Cc1ccccc1)[C@@H](C)c1ccccc1)[C@@H](C)O)C(=O)N[C@@H](CCCN=C(N)N)C(=O)N[C@@H](CCCCN)C(=O)N[C@@H](CO)C(=O)N[C@@H](C)C(=O)N[C@@H](CCCN=C(N)N)C(=O)N[C@@H](CCCCN)C(N)=O` ?
-86

Any idea what Emax was measured for `C[C@H](NC(=O)CNC(=O)[C@@H](NC(=O)[C@H](Cc1ccccc1)NC(=O)CNC(=O)CNC(=O)[C@@H](N)Cc1ccccc1)[C@@H](C)O)C(=O)N[C@@H](CCCNC(=N)N)C(=O)N[C@@H](CCCCN)C(=O)N[C@@H](CO)C(=O)N[C@@H](C)C(=O)N[C@@H](CCCNC(=N)N)C(=O)N[C@@H](CCCCN)C(N)=O` ?
-82

Any idea what Emax was measured for `C[C@H](NC(=O)CNC(=O)[C@@H](NC(=O)[C@H](Cc1ccccc1)N(C)C(=O)CNC(=O)CNC(=O)[C@@H](N)Cc1ccccc1)[C@@H](C)O)C(=O)N[C@@H](CCCN=C(N)N)C(=O)N[C@@H](CCCCN)C(=O)N[C@@H](CO)C(=O)N[C@@H](C)C(=O)N[C@@H](CCCN=C(N)N)C(=O)N[C@@H](CCCCN)C(N)=O` ?
-84

Any idea what Emax was measured for `C[C@H](NC(=O)CNC(=O)[C@@H](NC(=O)[C@H](Cc1ccc2ccccc2c1)NC(=O)CNC(=O)CNC(=O)[C@@H](N)Cc1ccccc1)[C@@H](C)O)C(=O)N[C@@H](CCCN=C(N)N)C(=O)N[C@@H](CCCCN)C(=O)N[C@@H](CO)C(=O)N[C@@H](C)C(=O)N[C@@H](CCCN=C(N)N)C(=O)N[C@@H](CCCCN)C(N)=O` ?
-75

====

SYSTEM_NAME: Nociceptin receptor (Mus musculus)
Sequence (P35377 whole entry): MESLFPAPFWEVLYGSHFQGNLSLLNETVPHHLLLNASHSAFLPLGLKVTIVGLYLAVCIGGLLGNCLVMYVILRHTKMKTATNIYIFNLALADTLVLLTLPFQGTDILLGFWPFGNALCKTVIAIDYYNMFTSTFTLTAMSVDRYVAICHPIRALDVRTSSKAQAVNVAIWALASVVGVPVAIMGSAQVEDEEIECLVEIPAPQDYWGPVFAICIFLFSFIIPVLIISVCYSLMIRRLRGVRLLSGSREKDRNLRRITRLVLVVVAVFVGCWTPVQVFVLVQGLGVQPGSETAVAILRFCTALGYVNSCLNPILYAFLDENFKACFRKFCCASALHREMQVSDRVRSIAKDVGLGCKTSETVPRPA
EXPERIMENT_DESCRIPTION: Maximum receptor binding in the electrically stimulated mouse vas deferens
Type: functional, tissue-based
Assign Emax to each entry below.
Give just the numeric value; % need not be written.

Any idea what Emax was measured for `C[C@H](NC(=O)CNC(=O)[C@@H](NC(=O)[C@H](Cc1ccccc1F)NC(=O)CNC(=O)CNC(=O)[C@@H](N)Cc1ccccc1)[C@@H](C)O)C(=O)N[C@@H](CCCN=C(N)N)C(=O)N[C@@H](CCCCN)C(=O)N[C@@H](CO)C(=O)N[C@@H](C)C(=O)N[C@@H](CCCN=C(N)N)C(=O)N[C@@H](CCCCN)C(N)=O` ?
-94

Any idea what Emax was measured for `C[C@H](NC(=O)CNC(=O)[C@@H](NC(=O)[C@H](Cc1ccc(Br)cc1)NC(=O)CNC(=O)CNC(=O)[C@@H](N)Cc1ccccc1)[C@@H](C)O)C(=O)N[C@@H](CCCN=C(N)N)C(=O)N[C@@H](CCCCN)C(=O)N[C@@H](CO)C(=O)N[C@@H](C)C(=O)N[C@@H](CCCN=C(N)N)C(=O)N[C@@H](CCCCN)C(N)=O` ?
-85

Any idea what Emax was measured for `Cc1ccc(C[C@H](NC(=O)CNC(=O)CNC(=O)[C@@H](N)Cc2ccccc2)C(=O)N[C@H](C(=O)NCC(=O)N[C@@H](C)C(=O)N[C@@H](CCCN=C(N)N)C(=O)N[C@@H](CCCCN)C(=O)N[C@@H](CO)C(=O)N[C@@H](C)C(=O)N[C@@H](CCCN=C(N)N)C(=O)N[C@@H](CCCCN)C(N)=O)[C@@H](C)O)cc1` ?
-73

====

SYSTEM_NAME: Nociceptin receptor (Mus musculus)
EXPERIMENT_DESCRIPTION: Maximum receptor binding in the electrically stimulated mouse vas deferens
Type: functional, tissue-based
MEASUREMENT_KIND: Emax (%)
Give just the numeric value; % need not be written.

Requested read-out Emax, target or system Nociceptin receptor (Mus musculus), entry `C[C@H](NC(=O)CNC(=O)[C@@H](NC(=O)[C@H](Cc1ccc(Cl)cc1)NC(=O)CNC(=O)CNC(=O)[C@@H](N)Cc1ccccc1)[C@@H](C)O)C(=O)N[C@@H](CCCN=C(N)N)C(=O)N[C@@H](CCCCN)C(=O)N[C@@H](CO)C(=O)N[C@@H](C)C(=O)N[C@@H](CCCN=C(N)N)C(=O)N[C@@H](CCCCN)C(N)=O`
-82

Requested read-out Emax, target or system Nociceptin receptor (Mus musculus), entry `C[C@H](NC(=O)CNC(=O)[C@@H](NC(=O)[C@H](Cc1ccc([N+](=O)[O-])cc1)NC(=O)CNC(=O)CNC(=O)[C@@H](N)Cc1ccccc1)[C@@H](C)O)C(=O)N[C@@H](CCCN=C(N)N)C(=O)N[C@@H](CCCCN)C(=O)N[C@@H](CO)C(=O)N[C@@H](C)C(=O)N[C@@H](CCCN=C(N)N)C(=O)N[C@@H](CCCCN)C(N)=O`
-86

Requested read-out Emax, target or system Nociceptin receptor (Mus musculus), entry `C[C@H](NC(=O)CNC(=O)[C@@H](NC(=O)[C@H](Cc1ccc(C(F)(F)F)cc1)NC(=O)CNC(=O)CNC(=O)[C@@H](N)Cc1ccccc1)[C@@H](C)O)C(=O)N[C@@H](CCCN=C(N)N)C(=O)N[C@@H](CCCCN)C(=O)N[C@@H](CO)C(=O)N[C@@H](C)C(=O)N[C@@H](CCCN=C(N)N)C(=O)N[C@@H](CCCCN)C(N)=O`
-75

Requested read-out Emax, target or system Nociceptin receptor (Mus musculus), entry `C[C@H](NC(=O)CNC(=O)[C@@H](NC(=O)[C@H](Cc1ccc(C#N)cc1)NC(=O)CNC(=O)CNC(=O)[C@@H](N)Cc1ccccc1)[C@@H](C)O)C(=O)N[C@@H](CCCN=C(N)N)C(=O)N[C@@H](CCCCN)C(=O)N[C@@H](CO)C(=O)N[C@@H](C)C(=O)N[C@@H](CCCN=C(N)N)C(=O)N[C@@H](CCCCN)C(N)=O`
-84

Requested read-out Emax, target or system Nociceptin receptor (Mus musculus), entry `C[C@H](NC(=O)CNC(=O)[C@@H](NC(=O)[C@H](Cc1cccc(F)c1)NC(=O)CNC(=O)CNC(=O)[C@@H](N)Cc1ccccc1)[C@@H](C)O)C(=O)N[C@@H](CCCN=C(N)N)C(=O)N[C@@H](CCCCN)C(=O)N[C@@H](CO)C(=O)N[C@@H](C)C(=O)N[C@@H](CCCN=C(N)N)C(=O)N[C@@H](CCCCN)C(N)=O`
-90

Requested read-out Emax, target or system Nociceptin receptor (Mus musculus), entry `C[C@H](NC(=O)CNC(=O)[C@@H](NC(=O)[C@H](Cc1ccc(N)cc1)NC(=O)CNC(=O)CNC(=O)[C@@H](N)Cc1ccccc1)[C@@H](C)O)C(=O)N[C@@H](CCCN=C(N)N)C(=O)N[C@@H](CCCCN)C(=O)N[C@@H](CO)C(=O)N[C@@H](C)C(=O)N[C@@H](CCCN=C(N)N)C(=O)N[C@@H](CCCCN)C(N)=O`
-23
